These entries and their values trace back to PubChem BioAssay AID2541.

- tested_system: NADPH oxidase 1 (Homo sapiens) (UniProt Q9Y5S8)
- Sequence (Q9Y5S8 whole entry, looked up): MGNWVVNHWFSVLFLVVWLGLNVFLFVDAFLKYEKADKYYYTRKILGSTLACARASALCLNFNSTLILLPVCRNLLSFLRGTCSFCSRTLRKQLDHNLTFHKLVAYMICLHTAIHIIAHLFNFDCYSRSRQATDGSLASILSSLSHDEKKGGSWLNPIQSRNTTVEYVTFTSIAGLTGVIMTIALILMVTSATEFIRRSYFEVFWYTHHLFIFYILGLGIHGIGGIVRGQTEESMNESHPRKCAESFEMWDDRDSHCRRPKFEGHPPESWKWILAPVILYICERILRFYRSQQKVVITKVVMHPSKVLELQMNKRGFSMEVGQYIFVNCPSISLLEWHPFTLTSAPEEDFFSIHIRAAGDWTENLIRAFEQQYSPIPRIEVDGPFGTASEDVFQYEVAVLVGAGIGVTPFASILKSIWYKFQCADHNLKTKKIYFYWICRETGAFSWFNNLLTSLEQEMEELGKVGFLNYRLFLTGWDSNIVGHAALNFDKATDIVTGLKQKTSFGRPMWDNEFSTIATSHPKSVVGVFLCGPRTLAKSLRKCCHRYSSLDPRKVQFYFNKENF
- test_name: NOX1 inhibitors in colonic epithelial cells, confirmation, luminescence, HT29 cells (AID 2541)
- condition: luminol ROS chemiluminescence, 1 h, at 3.3 µM, active compounds read high
value_type: inhibition (%)

// solved cases for inhibition follow
>>> value("CCn1c(-c2cc(-c3ccccc3)sc2N)n[nH]c1=S")
-5.1
>>> value("O=c1c2c(-c3ccc([N+](=O)[O-])cc3)onc2n(-c2ccccc2)c(=O)n1-c1ccccc1")
29
>>> value("Cc1ccc(SC#N)c(N)n1")
63.2

A: CCOC(=O)c1nsc(/C(C)=N/Nc2ccccc2)c1N
B: CCOc1ccccc1Nc1n[nH]c(=S)s1
Could you point out whether the larger inhibition belongs to A or to B ? Write down the label of the entry you select.
B
(B: 81.5%, A: 16%)

* * *

- tested_system: NADPH oxidase 1 (Homo sapiens) (UniProt Q9Y5S8)
- test_name: NOX1 inhibitors in colonic epithelial cells, confirmation, luminescence, HT29 cells (AID 2541)
- condition: luminol ROS chemiluminescence, 1 h, at 3.3 µM, active compounds read high
value_type: inhibition (%)

// solved cases for inhibition follow
>>> value("Cc1cc(Br)c(NC(=S)NNc2ccccc2)c(Br)c1")
76.9
>>> value("CC(C)C(=O)NNc1nc2c(c(=O)n(C)c(=O)n2C)n1Cc1ccc(Cl)cc1")
76.1

P: O=c1[nH]nc(N2CCSCC2)[nH]1
Q: COc1ccc(OC(=O)c2ccc3ncccc3c2)cc1
Please choose the item with the lower inhibition value from this pair: P and Q Write down the label of the entry you select.
Q

* * *

- tested_system: NADPH oxidase 1 (Homo sapiens) (UniProt Q9Y5S8)
- test_name: NOX1 inhibitors in colonic epithelial cells, confirmation, luminescence, HT29 cells (AID 2541)
- condition: luminol ROS chemiluminescence, 1 h, at 3.3 µM, active compounds read high
value_type: inhibition (%)

// solved cases for inhibition follow
>>> value("COc1cccc(NC(=S)NNC(=S)NC2CC3CCC2C3)c1 (configuration not stated)")
78.9
>>> value("Nc1nc(NCc2ccccc2OC(F)(F)F)n[nH]1")
78.4
>>> value("O=c1[nH]c2ccsc2c(=O)n1CCO")
95.7

P: CCN(CC)c1ccc(N=C2C=CC(=O)c3ccccc32)c(C)c1
Q: ON/C=N/c1nnc(C(F)(F)F)s1
R: CCS(=O)(=O)c1ccc(O)c(NC(=O)c2ccccc2C(=O)O)c1
Highest inhibition first, then in falling order down to the smallest. Output spec: a listing of the labels in the requested order.
Q, P, R

* * *

- tested_system: NADPH oxidase 1 (Homo sapiens) (UniProt Q9Y5S8)
- test_name: NOX1 inhibitors in colonic epithelial cells, confirmation, luminescence, HT29 cells (AID 2541)
- condition: luminol ROS chemiluminescence, 1 h, at 3.3 µM, active compounds read high
value_type: inhibition (%)

>>> value("COc1cc2ncnc(NNS(=O)(=O)c3cc(C)c(Cl)cc3C)c2cc1OC")
93
>>> value("CC(C)(C)c1csc(NNC(=O)c2ccc(Cl)cc2)n1")
81.8
>>> value("S=c1[nH]cc(-c2ccc(Br)cc2)[nH]1")
70.8
>>> value("COc1ccc(N(C)CC(=O)O)c(C(=O)O)c1")
75
>>> value("CC[n+]1c(C)csc1Nc1ccc(N2CC(C)OC(C)C2)cc1 (stereo unspecified)")
89.3
>>> value("Cc1cc(C)cc(NC(=O)Nc2ccc(N3CCCCC3)cc2)c1")
74.4
